Measured Human Hepatic Clearance, listed per entry for reference.
Test: Metabolic stability study in human microsome
Type: in vitro ADME
PROPERTY_LABEL: Human Hepatic Clearance (mL/min/kg)

>  <MOLECULE>
CCOC(=O)C1=C(CN2CC(F)(F)C[C@H]2C(=O)O)NC(c2nccs2)=N[C@H]1c1ccc(Cl)cc1Cl [Example 38]

>  <MEASURED_NUMBER>
9.3

$$$$
>  <MOLECULE>
COC(=O)C1=C(CN2CC(F)(F)C[C@H]2C(=O)O)NC(c2nccs2)=N[C@H]1c1ccc(F)cc1Cl [Example 2]

>  <MEASURED_NUMBER>
3.65

$$$$
>  <MOLECULE>
COC(=O)C1=C(CN2CC(F)(F)C[C@H]2C(=O)O)NC(c2nccs2)=N[C@H]1c1ccccc1Br [Example 72]

>  <MEASURED_NUMBER>
5.16

$$$$
>  <MOLECULE>
COC(=O)C1=C(CN2CC(F)(F)C[C@H]2C(=O)O)NC(c2cc(F)cs2)=N[C@H]1c1ccc(F)cc1Cl [Example 12]

>  <MEASURED_NUMBER>
5.55

$$$$
>  <MOLECULE>
COC(=O)C1=C(CN2CCOC[C@H]2C(=O)O)N=C(c2nccs2)N[C@H]1c1ccc(F)cc1Cl [Example 5]

>  <MEASURED_NUMBER>
2.7

$$$$
>  <MOLECULE>
CC(C)OC(=O)C1=C(CN2CCOC[C@H]2C(=O)O)NC(c2nccs2)=N[C@H]1c1ccc(F)c(F)c1 [Example 100]

>  <MEASURED_NUMBER>
0.1

$$$$
>  <MOLECULE>
COC(=O)C1=C(CN2CCO[C@H](C)[C@H]2C(=O)O)NC(c2nccs2)=N[C@H]1c1ccc(F)c(F)c1F [Example 114]

>  <MEASURED_NUMBER>
0

$$$$

====

Measured solubility thermodynamic, listed per entry for reference.
Assay: Lyophilisation solubility assay (Lysa)
Type: physicochemical
Conditions: phosphate buffer, pH 6.5, aqueous buffer, thermodynamic from solid
Protocol: The aqueous solubility is an important physico-chemical property that plays a significant role in various physical and biological processes. […] Samples are prepared in duplicate from 10 mM DMSO stock solutions. […] After one night, the solutions is filtered using a microtiter filter plate and the filtrate and its 1/10 dilution are then analyzed by direct UV measurement or by HPLC-UV. […]

>  <SMILES_STRUCTURE>
COC(=O)C1=C(CN2CCOC[C@H]2C(=O)O)NC(c2nc(C)cs2)=N[C@H]1c1ccc(F)cc1Cl

>  <solubility thermodynamic>
> 673 µg/mL

$$$$
>  <SMILES_STRUCTURE>
COC(=O)C1=C(CN2CCOC[C@H]2C(=O)O)NC(c2nc(C3CC3)cs2)=N[C@H]1c1ccc(F)cc1Cl

>  <solubility thermodynamic>
> 600 µg/mL

$$$$
>  <SMILES_STRUCTURE>
CCOC(=O)C1=C(CN2CCOC[C@H]2C(=O)O)NC(c2nccs2)=N[C@H]1c1cc(F)c(F)c(F)c1

>  <solubility thermodynamic>
> 606 µg/mL

$$$$
>  <SMILES_STRUCTURE>
CCOC(=O)C1=C(CN2CC(F)(F)C[C@H]2C(=O)O)NC(c2nccn2C)=N[C@H]1c1ccc(F)c(F)c1

>  <solubility thermodynamic>
> 645 µg/mL

$$$$

Data provenance: patent US9447086B2
